Where these numbers come from: ChEMBL document CHEMBL4049449

species on record: Homo sapiens; assay: Modulation of patient derived full length SMN2 pre mRNA splicing assessed as restoration of functional SMN2 to protein level
The source made the active and inactive calls. No cut-off for these calls is given here.
readout-label: EC1.5

Cc1cn2cc(C(=O)Nc3ccc(C4CCN(C)CC4)cc3)nc2c(C)n1 : inactive
Cc1cn2cc(C(=O)Nc3ccc(N4CCN(C)CC4)cc3)nc2c(C)n1 : inactive
Cc1cn2cc(NC(=O)c3ccc(N4CCNC(C)C4)c(F)c3F)ncc2n1 (stereo not given) : 603 nM
Cc1cn2cc(-c3ccc(C(=O)NC4CCN(C)CC4)cc3)nc2c(C)n1 : inactive
CC[C@H]1CN(c2ccc(C(=O)Nc3cn4cc(C)nc4cn3)c(F)c2)CCN1 : 246 nM

Exercise: What value of measured EC1.5 is listed for Cc1cn2cc(NC(=O)c3ccc(N4CCNCC4)cc3)ncc2n1 ?
Key: 2250 nM

Exercise: Name the reported EC1.5 value associated with the compound Cc1cn2cc(NC(=O)c3ccc(N4CCNCC4)cc3)nc2c(C)n1
Key: 775 nM

Exercise: Return reported EC1.5; argument: Cc1cn2cc(NC(=O)c3ccc(N4CCN(C)CC4)cn3)nc2c(C)n1
Key: 1520 nM

Exercise: Entry under review: Cc1cn2cc(NC(=O)c3cc(F)c(N4CCNC(C)C4)cc3F)ncc2n1 (stereo not given) . Reported EC1.5?
Key: 495 nM

Exercise: For Cc1cn2cc(NC(=O)c3ccc(N4CCN[C@H](C)C4)cc3F)ncc2n1 , what is its reported EC1.5?
Key: 122 nM

###

target: hERG (KCNH2) (Homo sapiens, UniProt Q12809); assay: Inhibition of human ERG channel
Sequence (Q12809 whole entry): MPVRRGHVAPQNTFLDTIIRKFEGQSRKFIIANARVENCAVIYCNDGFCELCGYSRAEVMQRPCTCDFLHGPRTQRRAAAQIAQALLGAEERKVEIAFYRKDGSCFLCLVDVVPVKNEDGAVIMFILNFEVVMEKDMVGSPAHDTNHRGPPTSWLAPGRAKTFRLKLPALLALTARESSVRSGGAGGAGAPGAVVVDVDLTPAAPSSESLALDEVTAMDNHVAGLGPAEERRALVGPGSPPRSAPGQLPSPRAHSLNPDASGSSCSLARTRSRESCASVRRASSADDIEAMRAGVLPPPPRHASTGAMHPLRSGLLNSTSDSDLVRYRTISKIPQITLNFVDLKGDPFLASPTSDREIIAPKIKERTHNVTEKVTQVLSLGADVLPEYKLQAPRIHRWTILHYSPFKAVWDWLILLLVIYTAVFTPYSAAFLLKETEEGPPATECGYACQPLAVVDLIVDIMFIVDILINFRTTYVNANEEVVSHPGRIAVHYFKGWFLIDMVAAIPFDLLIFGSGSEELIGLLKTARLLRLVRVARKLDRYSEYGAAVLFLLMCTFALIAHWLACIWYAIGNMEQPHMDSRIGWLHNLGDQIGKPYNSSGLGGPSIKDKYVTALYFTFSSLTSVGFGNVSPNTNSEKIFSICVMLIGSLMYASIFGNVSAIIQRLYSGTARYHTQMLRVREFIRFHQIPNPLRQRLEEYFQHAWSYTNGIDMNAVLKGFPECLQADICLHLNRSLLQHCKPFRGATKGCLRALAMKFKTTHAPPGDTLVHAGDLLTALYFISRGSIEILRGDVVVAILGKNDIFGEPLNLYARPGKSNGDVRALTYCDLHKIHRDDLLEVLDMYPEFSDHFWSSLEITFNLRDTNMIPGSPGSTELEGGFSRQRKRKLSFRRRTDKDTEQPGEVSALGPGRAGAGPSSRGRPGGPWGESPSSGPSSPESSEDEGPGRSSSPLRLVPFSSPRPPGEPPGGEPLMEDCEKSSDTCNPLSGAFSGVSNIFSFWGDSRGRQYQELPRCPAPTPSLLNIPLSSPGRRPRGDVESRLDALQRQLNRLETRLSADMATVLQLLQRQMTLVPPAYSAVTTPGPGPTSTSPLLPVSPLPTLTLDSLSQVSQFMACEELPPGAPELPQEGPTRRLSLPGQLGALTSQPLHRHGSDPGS
readout-label: IC20

Exercise: What value of IC20 has been recorded for this entry: Cc1cn2cc(NC(=O)c3ccc(N4CCN(C)CC4)cc3)nc2c(C)n1
Key: > 10 µM

###

tested on: Salmonella typhimurium; test: Genotoxicity in Salmonella typhimurium TA97 in presence of rat liver S9 fraction by Ames test; type: toxicity; conditions: salmonella enterica subsp. enterica serovar typhimurium
readout-label: Activity

Example compounds with recorded Activity:
CCN1CCN(c2ccc3cc(-c4cn5cc(C)nc(C)c5n4)c(=O)oc3c2)C[C@@H]1C : Toxic
Cc1cn2cc(NC(=O)c3ccc(N4CCNCC4)cc3F)ncc2n1 : Non-Toxic
Cc1cn2nc(NC(=O)c3ccc(N4CCNC(C)C4)cc3F)nc2c(C)n1 (centres undefined) : Non-Toxic
Cc1cn2cc(NC(=O)c3ccc(N4CCNC(C)C4)cc3F)nc2c(C)n1 (centres undefined) : Toxic
Cc1cn2cc(NC(=O)c3ccc(N4CCNCC4)cc3F)cc(F)c2n1 : Toxic
Cc1cn2cc(-c3cc4ccc(N5CCN(C)CC5)cc4c(=O)o3)nc2c(C)n1 : Toxic
Cc1cn2cc(NC(=O)c3ccc(N4CCN(C)CC4)cc3)nc2c(C)n1 : Non-Toxic
Cc1nc2c(F)cc(NC(=O)c3ccc(N4CCNCC4)cc3F)cc2o1 : Non-Toxic

With those in mind, consider the next compound.
Exercise: Lab request: please report Activity under test system Salmonella typhimurium for Cc1cn2cc(NC(=O)c3ccc(N4CCNC(C)C4)cc3F)c(C)cc2n1 (centres undefined)
Key: Non-Toxic

###

species on record: Homo sapiens; assay: Modulation of patient derived full length SMN2 pre mRNA splicing assessed as inclusion of exon 7
Calls of active or inactive are those of the source. The rule behind the calls is not given here.
readout-label: EC1.5

Consider the following illustrative entries.
Cc1cn2cc(NC(=O)c3ccc(N4CCN(C)CC4)cc3F)nc2c(C)n1 : 232 nM
Cc1cn2cc(NC(=O)c3ccc(N4CCNC(C)C4)c(F)c3F)ncc2n1 (stereo not given) : 165 nM
Cc1cn2cc(-c3ccc(NC(=O)C4CCN(C)CC4)cc3)nc2c(C)n1 : inactive
Cc1cn2cc(C(=O)Nc3ccc(N4CCN(C)CC4)cc3)nc2c(C)n1 : inactive
Cc1cn2cc(NC(=O)c3ccc(N4CCNC(C)(C)C4)cc3F)ncc2n1 : 31 nM

Here is another molecule to look at.
Exercise: For Cc1cn2cc(-c3cc4ccc(N5CCN(C)CC5)cc4c(=O)o3)nc2c(C)n1 , what is its reported EC1.5?
Key: 25 nM

###

experiment: Permeability of the compound by PAMPA; type: physicochemical; details: read-out: permeability
readout-label: Papp (×10⁻⁶ cm/s)
Please state the figure in ×10⁻⁶ cm/s; there is no need to write the unit.

Exercise: Which measured Papp value corresponds to Cc1cn2cc(NC(=O)c3ccc(N4CCN(C)CC4)cc3)nc2c(C)n1 ?
Key: 2.38

###

species on record: Homo sapiens; experiment: Modulation of patient derived full length SMN2 pre mRNA splicing assessed as restoration of functional SMN2 to protein level
Activity calls are given as the source filed them. No cut-off for these calls is given here.
readout-label: EC1.5

CC[C@@H]1CN(c2ccc(C(=O)Nc3cn4cc(C)nc4cn3)c(F)c2)CCN1 : 158 nM
Cc1cn2cc(NC(=O)c3ccc(N4CCNCC4)cc3F)cc(F)c2n1 : 27 nM
COc1cc(N2CCNC(C)C2)ccc1C(=O)Nc1cn2cc(C)nc2cn1 (configuration not stated) : 206 nM
Cc1cn2cc(NC(=O)c3ccc(N4CCNC(C(C)C)C4)cc3F)ncc2n1 (configuration not stated) : 265 nM
Cc1cn2nc(NC(=O)c3ccc(N4CCNC(C)C4)cc3F)nc2c(C)n1 (configuration not stated) : inactive

Exercise: For Cc1cn2cc(-c3ccc4c(c3)CCN(C3CCNCC3)C4=O)nc2c(C)n1 , what is its reported EC1.5?
Key: inactive

Exercise: What value of EC1.5 has been recorded for this entry: Cc1cn2cc(/C=C/c3ccc(N4CCNCC4)cc3)nc2c(C)n1
Key: 8420 nM

###

assay: Solubility of the compound in phosphate buffer solution at pH 6.5 by HPLC-UV analysis; assay type: physicochemical
readout-label: solubility (µg/mL)
Hi! Could you send only the number? It should be in µg/mL, unit omitted.

Exercise: Entry Cc1cn2cc(NC(=O)c3ccc(N4CCN(C)CC4)cc3)nc2c(C)n1 has what solubility?
Key: 111

###

assay: Fraction unbound in human plasma; type: ADME, cell-free
readout-label: fraction unbound
Give the figure only, with no unit attached.

Exercise: GET /values?readout=fraction unbound&item= Cc1cn2cc(NC(=O)c3ccc(N4CCNC(C)C4)cc3F)nc2c(C)n1 (stereo unspecified)
Key: 0.186

###

species: Homo sapiens; experiment: Modulation of patient derived full length SMN2 pre mRNA splicing assessed as inclusion of exon 7
Calls of active or inactive are those of the source. No cut-off for these calls is given here.
readout-label: EC1.5

Here is how some compounds turned out for EC1.5.
Cc1cn2cc(NC(=O)c3ccc(N4CCNC(C(C)C)C4)cc3F)ncc2n1 (stereo not given) : 106 nM
Cc1cn2cc(NC(=O)c3ccc(N4CCC(N5CCCC5)C4)cc3F)nc2c(C)n1 (stereo not given) : 29 nM
Cc1cn2cc(NC(=O)c3ccc(N4CCNCC4)cc3)ncc2n1 : 1040 nM
Cc1cn2cc(NC(=O)c3ccc(C4CCN(C)C4)cc3F)nc2c(C)n1 (stereo not given) : 91 nM
Cc1cn2cc(NC(=O)c3ccc(N4CCN(N5CCCC5)CC4)cc3F)nc2c(C)n1 : 100 nM

Exercise: Sample Cc1cn2cc(C(=O)Nc3ccc(C4CCN(C)CC4)cc3)nc2c(C)n1 — what was its EC1.5?
Key: inactive

###

target: UniProtKB P08684
Sequence (P08684 whole entry): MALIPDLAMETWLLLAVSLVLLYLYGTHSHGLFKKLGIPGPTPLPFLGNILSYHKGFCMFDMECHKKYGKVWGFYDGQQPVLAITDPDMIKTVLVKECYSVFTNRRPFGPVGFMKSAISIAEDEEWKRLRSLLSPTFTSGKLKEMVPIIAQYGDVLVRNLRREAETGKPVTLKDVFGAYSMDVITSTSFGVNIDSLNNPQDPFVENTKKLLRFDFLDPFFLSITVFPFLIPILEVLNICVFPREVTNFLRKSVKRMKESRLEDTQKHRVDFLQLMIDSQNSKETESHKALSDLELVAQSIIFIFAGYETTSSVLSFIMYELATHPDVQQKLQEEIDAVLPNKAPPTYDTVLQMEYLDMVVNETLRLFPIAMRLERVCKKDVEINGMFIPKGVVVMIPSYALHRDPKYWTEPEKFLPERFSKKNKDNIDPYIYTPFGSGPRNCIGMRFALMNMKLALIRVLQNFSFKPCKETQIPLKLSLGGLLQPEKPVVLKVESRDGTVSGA
readout-label: IC50

Exercise: What reported IC50 corresponds to Cc1cn2cc(NC(=O)c3ccc(N4CCN(C)CC4)cc3)nc2c(C)n1 on UniProtKB P08684?
Key: > 50 µM

###

system: Salmonella typhimurium; assay: Genotoxicity in Salmonella typhimurium TA100 in presence of rat liver S9 fraction by Ames test; assay type: toxicity; conditions: salmonella enterica subsp. enterica serovar typhimurium
readout-label: Activity

Solved cases (5 shown):
Cc1cn2cc(NC(=O)c3ccc(N4CCNC(C)C4)cc3F)c(C)cc2n1 (centres undefined) : Non-Toxic
Cc1nc2c(F)cc(NC(=O)c3ccc(N4CCNCC4)cc3F)cc2o1 : Non-Toxic
Cc1cn2nc(NC(=O)c3ccc(N4CCNC(C)C4)cc3F)nc2c(C)n1 (centres undefined) : Non-Toxic
Cc1cn2cc(-c3cc4ccc(N5CCN(C)CC5)cc4c(=O)o3)nc2c(C)n1 : Toxic
CCN1CCN(c2ccc3cc(-c4cn5cc(C)nc(C)c5n4)c(=O)oc3c2)C[C@@H]1C : Toxic

Exercise: Query Activity on Salmonella typhimurium for Cc1cn2cc(NC(=O)c3ccc(N4CCN(C)CC4)cc3)nc2c(C)n1
Key: Non-Toxic

Exercise: // map Cc1cn2cc(NC(=O)c3ccc(N4CCNCC4)cc3F)cc(F)c2n1 to recorded Activity (system: Salmonella typhimurium)
Key: Toxic

Exercise: // map Cc1cn2cc(NC(=O)c3ccc(N4CCNC(C)C4)cc3F)nc2c(C)n1 (centres undefined) to recorded Activity (system: Salmonella typhimurium)
Key: Toxic

Exercise: Provide the documented Activity with Salmonella typhimurium as the system for Cc1cn2cc(NC(=O)c3ccc(N4CCNCC4)cc3F)ncc2n1
Key: Non-Toxic
